Target: six-subunit PRC2 AEBP2del261-389 (UniProt Q15910-2;O75530;Q15022;Q09028;Q6ZN18-2;Q92833 …, internal_change)
Assay: EMSA; P = 0.05 vs WT; EMSA: 50 mM Tris-HCl pH 7.5 (25 C), 100 mM KCl (or LiCl), 2.5 mM MgCl2, 0.1 mM ZnCl2, 2 mM 2-mercaptoethanol, 0.05 mg/ml BSA, 0.05 mg/ml yeast tRNA, 5% glycerol, 30 C 30 min
Conditions: protein: recombinant; copies: 1;1;1;1;1;1; label: 32P 5' (EMSA); no G4
Parameter: Kd (nM)
Answers are plain numbers, in nM.

Recorded Kd for AAAAAAAAAAGAGAGAGAUGAGUGUGAGUGUGAGUGUGAGUGAGAGAGAG (ssRNA) [TERRAmut] , please?
112
